For each record, write down the corresponding PBM binding z-score.
Tested on: PPARa:RXRa (NR concentration 270 nM, RXRa partner concentration 90 nM)
Assay: PBM binding z-score (relative to random genomic background probes); higher = stronger binding; sequences stand for … in GC…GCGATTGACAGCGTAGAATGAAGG
Number only, please.

Lookup: Value wanted: PBM binding z-score (PPARa:RXRa (NR concentration 270 nM, RXRa partner concentration 90 nM)) of entry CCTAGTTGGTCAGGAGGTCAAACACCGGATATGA
Found: 4.55

Lookup: Now the same for CCTCGAAGGACAGAAGGTCAGAGCTGTCCGCTTT
Found: 1.83

Lookup: Now the same for TATCGGAGGACACGAAGGTCAGAGCTTTCCAGAG
Found: 1.88

Lookup: Now the same for GATACAGGGTCAAGGCCAGAGGACGCGTATTGAT
Found: 5.49

Lookup: Now the same for ATACCTAGGTGATCGTGAGGTCGTTGATACTAAC
Found: 1.55

Lookup: Now the same for ACTAGCAGGCCAAGTTTGGGTGACTCAAACAAAG
Found: -0.036

Lookup: Now the same for TCTTGTAGATCAACAGGAGGTTAAGGAAGATCGA
Found: 1.24

Lookup: Now the same for ACTTTTAGTTGAGACGAGGGCAACCGATAGGTTG
Found: 0.546

Lookup: Now the same for TAACCTAGGTCATTGGGCCAGTATAGTACGCATC
Found: 4.54

Lookup: Now the same for CGAAATAGGTCAGAACAGGACAGTGAAGGATGAT
Found: 3.89

Lookup: Now the same for TCTGGTAGATCAAGCAGGTTAAGAAAGCCTGAGT
Found: 0.171

Lookup: Now the same for CCGACTGGGGCACAAGGTTACCATAAGCCAGCCC
Found: 2.2

Lookup: Now the same for GGGACTGGGGCATCAGCAGGTTACCATAACTTAA
Found: 2.25

Lookup: Now the same for TCTTGTAGTTCAGCAGGTTAAGAAAGCTGGCCAA
Found: 1.5

Lookup: Now the same for ATATGTAGGTTAGCTGGGGTCATCCAGACTAGGC
Found: 5.22

Lookup: Now the same for GGAACGAGGGCATTCGACTTGATAGCATGGCGAT
Found: 1.41

Lookup: Now the same for ATACCAAGGTGATCGTGAGGTGGTTGATACTAAC
Found: 0.168

Lookup: Now the same for TCTACTAGTTGAAGGGCAACCGACGAGTCCGTTT
Found: 0.726

Lookup: Now the same for TCTTGTAGCTCAATAGAGGTTAAGAAAGTGCGCT
Found: 1.52

Lookup: Now the same for GCTAGCAGGCCATTTGGCTCACTCAATGACGGGC
Found: -0.645

Lookup: Now the same for ATACCAAGGTGATCGTTAGGTCGTTGATACTAAC
Found: 0.452

Lookup: Now the same for ATCTGTAGGTAAGACTCAGTTCAGTGAAGAACGC
Found: 0.0967

Lookup: Now the same for ATCTCTAGGTAAAGTTCAGTGAAAGATCGATAGA
Found: 2.35

Lookup: Now the same for GCTATTAGTTGAAAGGCCAACCGAATGATTCTCG
Found: 1.3

Lookup: Now the same for TCTGCTAGGTCAACTATGGTCAGCTAATCTGCTA
Found: 3.65

Lookup: Now the same for GCTTGTAGATCAAGATTAAGAAAGACTAAGCTAA
Found: -0.32
